system: Leishmania donovani; assay: GSK_TCAKS: pIC50 Leishmania donovani Imaging: THP-1 Host Macrophages. Assay plates (384-well) were prepared by adding 250nL of compound to each well. For single shot assay, the final compound concentration was 5 uM. […] Automated image analysis was performed with a script developed on Acapella High Content Imaging and Analysis Software (PerkinElmer). Output: THP-1 cell count were reported for each well.; type: functional, organism-based, Homo sapiens
Lab note: compare IC50 with 6 µM, writing y if less and n if equal or more.

Below are worked cases with known answers.
>>> df
                                   compound  label_class
0  CC(C(=O)Nc1ccc(Br)cc1)N1CCN(c2ccc([N+](=O)[O-])cc2)CC1 (stereo unspecified)            n
1  Cc1ccccc1NS(=O)(=O)c1ccc2[nH]cc(C(=O)NC3CCCCC3)c(=O)c2c1            n
2  COc1ccc2nccc([C@H](O)CN3CC[C@H](NC(=O)c4ccc(Br)cc4)[C@@H](O)C3)c2n1            n
3      Cc1c(C(=O)NCCCCn2ccnc2)oc2c(C)cccc12            n
4  CNc1cncc(C2CCCN2C(=O)Cc2ccc3ccccc3c2)n1 (stereo unspecified)            n
5    O=C(Nc1ccc(Br)c(Cl)c1)Nc1ccc2c(c1)OCO2            n

[ask] Please check: IC50 for O=C(Nc1ccccc1C(=O)Nc1ccccn1)c1ccco1 , strictly under 6 µM or not?
[reply] n

[ask] Please check: IC50 for CC(C)S(=O)(=O)c1ccc(-c2cnc(N)c3cc(-c4ccnc(N)n4)ccc23)cc1 , strictly under 6 µM or not?
[reply] y

[ask] Please check: IC50 for CCN(Cc1ccncc1)Cc1ccc(NC(=O)c2cc(-c3ccc(F)cc3)n[nH]2)cc1 , strictly under 6 µM or not?
[reply] y

[ask] Please check: IC50 for COc1ccc(C2CC(c3ccccc3Cl)=NN2C(=O)CNC(=O)C2CCCC2)cc1 (stereo unspecified) , strictly under 6 µM or not?
[reply] n

[ask] Please check: IC50 for O=C(NCCc1ccn(-c2ccccc2)n1)C1CCCCC1 , strictly under 6 µM or not?
[reply] n

[ask] Please check: IC50 for COc1ccc(S(=O)(=O)Nc2ccc(C(=O)Nc3nc(-c4ccccn4)cs3)cc2)cc1 , strictly under 6 µM or not?
[reply] n

[ask] Please check: IC50 for C=CCn1nc([N+](=O)[O-])nc1Oc1ccc(Cl)cc1Cl , strictly under 6 µM or not?
[reply] n

[ask] Please check: IC50 for Cc1cnc(Nc2cc(Cc3ccccc3)nc(N[C@H]3CC[C@H](O)CC3)n2)s1 , strictly under 6 µM or not?
[reply] y

[ask] Please check: IC50 for CCc1ccc2nc(NC(=O)c3cc(N4CCOCC4)ccn3)sc2c1 , strictly under 6 µM or not?
[reply] n

[ask] Please check: IC50 for COc1ccc(C2=NCC(CSc3nnc(-c4ccc5c(c4)OCO5)o3)S2)cc1 (stereo unspecified) , strictly under 6 µM or not?
[reply] n

###

test system: Trypanosoma brucei brucei; experiment: GSK_TCAKS: pIC50 Trypanosoma brucei viability assay using fluorescence intensity. Assay plates (1536-well) were prepared by dispensing 25nL of compound solution per well using an Echo acoustic dispenser (Labcyte).; format: functional, organism-based; conditions: Lister 427, 2 h
Provide the recorded IC50 for the entries that follow.
Give bare numbers, in nM.

>>> print(df.to_string())
                                   compound  observed
0  CC1(C)CCC(=Cc2ccc(Cl)cc2)CC1(O)Cn1ccnc1 (stereo not given)     10000

Go through the items and report each one's IC50.
1. O=C(c1ccccc1)N1CCC(C(=O)N2CCC(Oc3ccccc3Cl)CC2)CC1
2. Cc1ccc(Nc2nc(N)nc(CNC(c3nc4ccccc4[nH]3)C(C)C)n2)cc1 (stereo not given)
3. CCCn1c(NC(=O)CCn2cc(Br)cn2)nc2ccccc21
4. CN(Cc1nc2cccc(C(=O)N3CCN(Cc4ccccc4)CC3)c2[nH]1)C1CCCc2cccnc21 (stereo not given)
5. Clc1ccc(OCCN2CCCCC2c2cccnc2)c(Cl)c1 (stereo not given)

[reply]
501
7940
7940
631
31600

Go through the items and report each one's IC50.
1. COc1ccc2nccc([C@H](O)CN3CC[C@H](NC(=O)c4ccc(Br)cc4)[C@@H](O)C3)c2n1
2. NS(=O)(=O)c1ccc(CNC(=O)c2ccc([N+](=O)[O-])s2)cc1
3. COc1ccc(-c2ccc3nnc(-c4ccc(O)c(OC)c4)n3c2)cn1

[reply]
1. 200
2. 251
3. 2000
